Tested on: Providencia rettgeri
Experiment: Antibacterial activity expressed as MIC value was determined on Proteus rettgeri A-9637 organism
Type: functional
Catalogue of MIC readings, one per entry.
Just the number in µg/mL, nothing appended.

[[record]]
compound = "CC1(C)S[C@@H]2[C@H](NC(=O)C(C(=O)O)c3ccccc3)C(=O)N2[C@H]1C(=O)O.NC[C@H]1O[C@H](O[C@H]2[C@H](O)[C@@H](O[C@H]3O[C@H](CO)[C@@H](O)[C@H](N)[C@H]3O)[C@H](N)C[C@@H]2N)[C@H](N)C[C@@H]1O"
measure_name = "MIC"
unit_symbol = "µg/mL"
recorded_number = 125

[[record]]
compound = "CC1(C)S[C@@H]2[C@H](NC(=O)C(C(=O)O)c3ccccc3)C(=O)N2[C@H]1C(=O)O.NC[C@H]1O[C@H](O[C@H]2[C@H](O)[C@@H](O[C@H]3O[C@H](CO)[C@@H](O)[C@H](N)[C@H]3O)[C@H](N)C[C@@H]2N)[C@H](O)[C@@H](O)[C@@H]1O"
measure_name = "MIC"
unit_symbol = "µg/mL"
recorded_number = 250

[[record]]
compound = "NC[C@H]1O[C@H](O[C@H]2[C@H](O)[C@@H](O[C@H]3O[C@H](CO)[C@@H](O)[C@H](N)[C@H]3O)[C@H](N)C[C@@H]2N)[C@H](O)[C@@H](O)[C@@H]1O"
measure_name = "MIC"
unit_symbol = "µg/mL"
recorded_number = 0.5

[[record]]
compound = "NC[C@H]1O[C@H](O[C@H]2[C@H](O)[C@@H](O[C@H]3O[C@H](CO)[C@@H](O)[C@H](N)[C@H]3O)[C@H](N)C[C@@H]2N)[C@H](N)C[C@@H]1O"
measure_name = "MIC"
unit_symbol = "µg/mL"
recorded_number = 0.13


Now for the compound whose MIC we want.
Query: For the compound CC1(C)S[C@@H]2[C@H](NC(=O)C(C(=O)O)c3ccccc3)C(=O)N2[C@H]1C(=O)O (stereo not given in full) , what MIC is on record?
Response: 0.5

---

Test system: Escherichia coli
Assay: Antibacterial activity expressed as MIC value was determined on Escherichia coli A-20683 organism
Assay type: functional
measure-name: MIC (µg/mL)
Just the number in µg/mL, nothing appended.

Query: Given the entry NC[C@H]1O[C@H](O[C@H]2[C@H](O)[C@@H](O[C@H]3O[C@H](CO)[C@@H](O)[C@H](N)[C@H]3O)[C@H](N)C[C@@H]2N)[C@H](N)C[C@@H]1O , what MIC was observed with Escherichia coli?
Response: 16

---

Test system: Providencia stuartii
Assay: Antibacterial activity expressed as MIC value was determined on Proteus stuartii A-20894 organism
Type: functional
measure-name: MIC (µg/mL)
Just the number in µg/mL, nothing appended.

[[record]]
molecule = "CC1(C)S[C@@H]2[C@H](NC(=O)C(C(=O)O)c3ccccc3)C(=O)N2[C@H]1C(=O)O (stereo not given in full) [CARBENICILLIN]"
unit_symbol = "µg/mL"
recorded_number = 8

[[record]]
molecule = "NC[C@H]1O[C@H](O[C@H]2[C@H](O)[C@@H](O[C@H]3O[C@H](CO)[C@@H](O)[C@H](N)[C@H]3O)[C@H](N)C[C@@H]2N)[C@H](N)C[C@@H]1O [TOBRAMYCIN]"
unit_symbol = "µg/mL"
recorded_number = 16


Now for the molecule whose MIC we want.
Query: Given the entry NC[C@H]1O[C@H](O[C@H]2[C@H](O)[C@@H](O[C@H]3O[C@H](CO)[C@@H](O)[C@H](N)[C@H]3O)[C@H](N)C[C@@H]2N)[C@H](O)[C@@H](O)[C@@H]1O [KANAMYCIN] , what MIC was observed with Providencia stuartii?
Response: 4

---

Catalogue of MIC readings, one per entry.
Test system: Escherichia coli
Assay: Antibacterial activity expressed as MIC value was determined on Escherichia coli A-20683 organism
Format: functional

[[record]]
molecule = "CC1(C)S[C@@H]2[C@H](NC(=O)C(C(=O)O)c3ccccc3)C(=O)N2[C@H]1C(=O)O (stereo partly drawn)"
target_desc = "Escherichia coli"
result = "> 125 µg/mL"

[[record]]
molecule = "CC1(C)S[C@@H]2[C@H](NC(=O)C(C(=O)O)c3ccccc3)C(=O)N2[C@H]1C(=O)O.NC[C@H]1O[C@H](O[C@H]2[C@H](O)[C@@H](O[C@H]3O[C@H](CO)[C@@H](O)[C@H](N)[C@H]3O)[C@H](N)C[C@@H]2N)[C@H](O)[C@@H](O)[C@@H]1O"
target_desc = "Escherichia coli"
result = "> 250 µg/mL"


Now for the molecule whose MIC we want.
Query: Given the entry NC[C@H]1O[C@H](O[C@H]2[C@H](O)[C@@H](O[C@H]3O[C@H](CO)[C@@H](O)[C@H](N)[C@H]3O)[C@H](N)C[C@@H]2N)[C@H](O)[C@@H](O)[C@@H]1O , what MIC was observed with Escherichia coli?
Response: > 125 µg/mL

---

Catalogue of MIC readings, one per entry.
System: Pseudomonas aeruginosa
Experiment: Antibacterial activity expressed as MIC value was determined on Pseudomonas aeruginosa A-9834A organism
Format: functional

Examples with their reported MIC follow.
[[record]]
molecule = "NC[C@H]1O[C@H](O[C@H]2[C@H](O)[C@@H](O[C@H]3O[C@H](CO)[C@@H](O)[C@H](N)[C@H]3O)[C@H](N)C[C@@H]2N)[C@H](N)C[C@@H]1O"
result = "0.13 µg/mL"

[[record]]
molecule = "CC1(C)S[C@@H]2[C@H](NC(=O)C(C(=O)O)c3ccccc3)C(=O)N2[C@H]1C(=O)O.NC[C@H]1O[C@H](O[C@H]2[C@H](O)[C@@H](O[C@H]3O[C@H](CO)[C@@H](O)[C@H](N)[C@H]3O)[C@H](N)C[C@@H]2N)[C@H](O)[C@@H](O)[C@@H]1O"
result = "> 250 µg/mL"

[[record]]
molecule = "CC1(C)S[C@@H]2[C@H](NC(=O)C(C(=O)O)c3ccccc3)C(=O)N2[C@H]1C(=O)O.NC[C@H]1O[C@H](O[C@H]2[C@H](O)[C@@H](O[C@H]3O[C@H](CO)[C@@H](O)[C@H](N)[C@H]3O)[C@H](N)C[C@@H]2N)[C@H](N)C[C@@H]1O"
result = "250 µg/mL"

[[record]]
molecule = "CC1(C)S[C@@H]2[C@H](NC(=O)C(C(=O)O)c3ccccc3)C(=O)N2[C@H]1C(=O)O (stereo not given in full)"
result = "32 µg/mL"


Now for the molecule whose MIC we want.
Query: For the molecule NC[C@H]1O[C@H](O[C@H]2[C@H](O)[C@@H](O[C@H]3O[C@H](CO)[C@@H](O)[C@H](N)[C@H]3O)[C@H](N)C[C@@H]2N)[C@H](O)[C@@H](O)[C@@H]1O , what MIC is on record?
Response: 63 µg/mL

---

Catalogue of MIC readings, one per entry.
Tested on: Staphylococcus aureus
Test: Antibacterial activity expressed as MIC value was determined on Staphylococcus aureus A-21978 organism
Assay type: functional

Examples with their reported MIC follow.
[[record]]
molecule = "CC1(C)S[C@@H]2[C@H](NC(=O)C(C(=O)O)c3ccccc3)C(=O)N2[C@H]1C(=O)O.NC[C@H]1O[C@H](O[C@H]2[C@H](O)[C@@H](O[C@H]3O[C@H](CO)[C@@H](O)[C@H](N)[C@H]3O)[C@H](N)C[C@@H]2N)[C@H](N)C[C@@H]1O"
target_desc = "Staphylococcus aureus"
result = "> 250 µg/mL"

[[record]]
molecule = "CC1(C)S[C@@H]2[C@H](NC(=O)C(C(=O)O)c3ccccc3)C(=O)N2[C@H]1C(=O)O (stereo not given in full)"
target_desc = "Staphylococcus aureus"
result = "> 125 µg/mL"

[[record]]
molecule = "CC1(C)S[C@@H]2[C@H](NC(=O)C(C(=O)O)c3ccccc3)C(=O)N2[C@H]1C(=O)O.NC[C@H]1O[C@H](O[C@H]2[C@H](O)[C@@H](O[C@H]3O[C@H](CO)[C@@H](O)[C@H](N)[C@H]3O)[C@H](N)C[C@@H]2N)[C@H](O)[C@@H](O)[C@@H]1O"
target_desc = "Staphylococcus aureus"
result = "> 250 µg/mL"

[[record]]
molecule = "NC[C@H]1O[C@H](O[C@H]2[C@H](O)[C@@H](O[C@H]3O[C@H](CO)[C@@H](O)[C@H](N)[C@H]3O)[C@H](N)C[C@@H]2N)[C@H](N)C[C@@H]1O"
target_desc = "Staphylococcus aureus"
result = "32 µg/mL"


Query: For the molecule NC[C@H]1O[C@H](O[C@H]2[C@H](O)[C@@H](O[C@H]3O[C@H](CO)[C@@H](O)[C@H](N)[C@H]3O)[C@H](N)C[C@@H]2N)[C@H](O)[C@@H](O)[C@@H]1O , what MIC is on record?
Response: > 125 µg/mL
